Provenance of the data: ChEMBL document CHEMBL4651402

Kindly supply the reported IC50 values for the records listed here.
test system: SARS-CoV-2; test: microbe, parasite or virus in culture; assay type: functional, organism-based, Chlorocebus sabaeus, Vero C1008; details: Severe acute respiratory syndrome coronavirus 2, Vero C1008, 48 h; read-out: pIC50 (converted)

Record summary for `CC[C@@H](C(=O)[C@@H](C)[C@@H](O)[C@H](C)[C@@H]1O[C@@H]([C@@H](CC)C(=O)O)CC[C@@H]1C)[C@H]1O[C@]2(C=C[C@@H](O)[C@]3(CC[C@@](C)([C@H]4CC[C@](O)(CC)[C@H](C)O4)O3)O2)[C@H](C)C[C@@H]1C` : reported IC50 = 1.29 µM

Record summary for `COc1cc2c(Oc3ccc4[nH]c(C)cc4c3F)ccnc2cc1OCC1(N)CC1` : reported IC50 = > 100 µM

Record summary for `Fc1ccc([C@@H]2CCNC[C@H]2COc2ccc3c(c2)OCO3)cc1` : reported IC50 = > 100 µM

Record summary for `Cc1nc2ccccn2c(=O)c1CCN1CCC(=C(c2ccc(F)cc2)c2ccc(F)cc2)CC1` : reported IC50 = > 100 µM

Record summary for `COc1cc2c(c(OC)c1OC)-c1ccc(OC)c(=O)cc1[C@@H](NC(C)=O)CC2` : reported IC50 = > 100 µM

Record summary for O=C1NC2CCCCN2C12CCN(CCCN1c3ccccc3CCc3ccc(Cl)cc31)CC2 (stereo not given) : reported IC50 = > 100 µM

Record summary for `CC(=O)c1ccc2c(c1)N(CCCN1CCN(CCO)CC1)c1ccccc1S2` : reported IC50 = > 100 µM

Record summary for `C=CC(=O)Nc1cc(Nc2nccc(-c3cn(C)c4ccccc34)n2)c(OC)cc1N(C)CCN(C)C` : reported IC50 = > 100 µM

Record summary for `Nc1ccn([C@@H]2O[C@H](CO)[C@@H](O)[C@@H]2O)c(=O)n1` : reported IC50 = > 20 µM

Record summary for `CCCC(C(=O)OCCN(CC)CC)(c1ccccc1)c1ccccc1` : reported IC50 = > 100 µM

Record summary for C=C1CC[C@@H]2[C@](C)(CO)[C@H](O)CC[C@@]2(C)[C@@H]1C/C=C1/C(=O)OC[C@H]1O [ANDROGRAPHOLIDE] : reported IC50 = > 100 µM

Record summary for `CN(C)CCCn1cc(-c2ccccc2)c(-c2ccccc2)n1` : reported IC50 = > 100 µM

Record summary for `CCn1cc(-c2ccnc3[nH]c(-c4cccc(CN(C)C)c4)cc23)c(-c2ccc(NC(=O)N(C)C)cc2)n1` : reported IC50 = > 100 µM

Record summary for COc1ccccc1OCCNCC(O)COc1cccc2[nH]c3ccccc3c12 (stereo not given) : reported IC50 = 10 µM

Record summary for `Cc1c(-c2ccc(-c3ccccc3F)cc2)nc2ccc(F)cc2c1C(=O)O` : reported IC50 = > 20 µM
